This collection of values is drawn from patent US11465984B2.

molecular target: ERK2 kinase (Homo sapiens (Human)); test: In vitro enzyme activity assay, ERK2 kinase (Z'-LYTE); type: biochemical; conditions: class symbols; read-out: ERK2 IC50
Sequence (P28482 whole entry): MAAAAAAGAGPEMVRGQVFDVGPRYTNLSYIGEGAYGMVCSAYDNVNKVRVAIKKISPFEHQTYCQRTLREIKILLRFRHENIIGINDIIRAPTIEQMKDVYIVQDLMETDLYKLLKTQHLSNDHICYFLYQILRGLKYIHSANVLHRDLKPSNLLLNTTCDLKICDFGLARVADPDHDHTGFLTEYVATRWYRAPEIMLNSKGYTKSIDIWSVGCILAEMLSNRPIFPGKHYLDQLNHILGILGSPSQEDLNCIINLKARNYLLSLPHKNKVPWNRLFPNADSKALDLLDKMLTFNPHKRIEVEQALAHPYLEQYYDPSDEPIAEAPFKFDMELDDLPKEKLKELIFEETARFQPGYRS
pIC50: −log10 of the molar value.

- Compound: "CC(CO)Nc1cc(-c2cc(F)c3c(c2)CCN3C(=O)Cc2cccnc2Cl)ccn1 (stereo not shown)"
  Target or system: "ERK2 kinase (Homo sapiens (Human))"
  pIC50: "6.00 to 7.00"
- Compound: "O=C(Cc1cccnc1Cl)N1CCc2cc(-c3ccnc(NC4CCC(O)CC4)n3)cc(F)c21 (stereo not shown)"
  Target or system: "ERK2 kinase (Homo sapiens (Human))"
  pIC50: "7.00 to 8.00"
- Compound: "Cn1nccc1Nc1nccc(-c2cc(F)c3c(c2)CCN3C(=O)Cc2ccccc2Cl)n1"
  Target or system: "ERK2 kinase (Homo sapiens (Human))"
  pIC50: "≥ 8.00"
- Compound: "Cn1nccc1Nc1nccc(-c2cc(F)c3c(c2)CCN3C(=O)Cc2ccc(Cl)cc2)n1"
  Target or system: "ERK2 kinase (Homo sapiens (Human))"
  pIC50: "6.00 to 7.00"
- Compound: "Cc1cc(-c2ccnc(Nc3ccnn3C)n2)cc2c1N(C(=O)Cc1cccnc1Cl)CC2"
  Target or system: "ERK2 kinase (Homo sapiens (Human))"
  pIC50: "6.00 to 7.00"
- Compound: "Cn1nccc1Nc1cc(-c2cc(F)c3c(c2)CCN3C(=O)Cc2cccc(Cl)n2)ccn1"
  Target or system: "ERK2 kinase (Homo sapiens (Human))"
  pIC50: "7.00 to 8.00"
- Compound: "Cn1nccc1Nc1nccc(-c2cc(F)c3c(c2)CCN3C(=O)Cc2cc(F)ccc2Cl)n1"
  Target or system: "ERK2 kinase (Homo sapiens (Human))"
  pIC50: "7.00 to 8.00"
- Compound: "COCC1Cc2cc(-c3ccnc(Nc4ccnn4C)c3)cc(F)c2N1C(=O)Cc1cccnc1Cl (stereo not shown)"
  Target or system: "ERK2 kinase (Homo sapiens (Human))"
  pIC50: "≥ 8.00"
- Compound: "Cc1cnc(Nc2ccnn2C)nc1-c1cc(F)c2c(c1)CC(C)N2C(=O)Cc1cccnc1Cl (stereo not shown)"
  Target or system: "ERK2 kinase (Homo sapiens (Human))"
  pIC50: "≥ 8.00"
- Compound: "Cn1nccc1Nc1cc(-c2cc(F)c3c(c2)CCN3C(=O)CCc2cccnc2Cl)ccn1"
  Target or system: "ERK2 kinase (Homo sapiens (Human))"
  pIC50: "7.00 to 8.00"
